These data points were gathered from ChEMBL document CHEMBL1126681.

tested on: MRC5; assay: Compound was evaluated for the inhibition of cell replication of human fibroblast (MRC-5) cells; format: functional; settings: read-out: CD50 (the source's name)
Entries and their CC50 values follow.
Be sure to follow the number with its unit.

Worked cases, answers included:
Nc1nc(O)c2ncn(OCC/C=C\P(=O)(O)O)c2n1    26 µM
Nc1ncnc2c1ncn2OCC/C=C/P(=O)(O)O    330 µM
Nc1ncnc2c1ncn2CC(/C=C/P(=O)(O)O)CO (stereo not given)    189 µM
Nc1ncnc2c1ncn2CC/C=C/P(=O)(O)O    260 µM
Nc1ncnc2c1ncn2OCCOCP(=O)(O)O    173 µM
Nc1nc(O)c2ncn(OCC(/C=C/P(=O)(O)O)CO)c2n1 (stereo not given)    19 µM
Nc1nc(O)c2ncn(CC/C=C/P(=O)(O)O)c2n1    4.5 µM
Nc1nc(N)c2ncn(CC/C=C/P(=O)(O)O)c2n1    222 µM
Nc1nc(O)c2ncn(OCC/C=C/P(=O)(O)O)c2n1    0.1 µM

Next, consider the following molecule.
// field: CC50; key: Nc1nc(O)c2ncn(CC(/C=C/P(=O)(O)O)CO)c2n1 (stereo not given) ; value = 20 µM

---

tested on: Human alphaherpesvirus 2; assay: Compound was evaluated for anti-herpesvirus activity against Herpes simplex virus-2 (MS) strain; format: functional, organism-based
pIC50: −log10 of the molar value.
Please note: criterion met applies when pIC50 is 4 or greater, and criterion not met applies otherwise.

Nc1nc(O)c2ncn(CC(/C=C/P(=O)(O)O)CO)c2n1 (stereo unspecified)    criterion met
Nc1ncnc2c1ncn2OCCOCP(=O)(O)O    criterion not met
Nc1nc(O)c2ncn(OCC(/C=C/P(=O)(O)O)CO)c2n1 (stereo unspecified)    criterion not met

Please turn your attention to the following entry.
Could you please find out whether `Nc1nc(O)c2ncn(OCC/C=C/P(=O)(O)O)c2n1` has pIC50 that meets 4 or exceeds it? criterion met

---

Entries and their log10 of MIC values follow.
test system: Visna-maedi virus; assay: Compound was evaluated for anti-retrovirus activity against Visna virus (K184) strain in infected sheep choroid plexus cells; type: functional
In plain terms, each number is the log10 of measured MIC in µM.

Worked cases, answers included:
Nc1ncnc2c1ncn2OCCOCP(=O)(O)O    0.90
Nc1nc(O)c2ncn(CC/C=C/P(=O)(O)O)c2n1    -0.46
Nc1ncnc2c1ncn2CC/C=C/P(=O)(O)O    1.30

For the compound `Nc1nc(O)c2ncn(OCC/C=C\P(=O)(O)O)c2n1` , the measured log10 of MIC on Visna-maedi virus was -1.00

For the compound `Nc1nc(N)c2ncn(CC/C=C/P(=O)(O)O)c2n1` , the measured log10 of MIC on Visna-maedi virus was 0.32

For the compound `Nc1ncnc2c1ncn2OCC/C=C/P(=O)(O)O` , the measured log10 of MIC on Visna-maedi virus was 1.91

---

experiment: Second dissociation constant was determined; assay type: ADME; details: read-out: pKa E2
readout name: pKa
Respond using a number only.

// field: pKa; key: Nc1nc(O)c2ncn(OC(/C=C/P(=O)(O)O)CO)c2n1 (stereo unspecified) ; value = 6.6

---

test: Second dissociation constant was determined; assay type: ADME
readout name: pKa
Respond using a number only.

// field: pKa; key: Nc1nc2c(ncn2CCOCP(=O)(O)O)c(=O)[nH]1 [GS-438] ; value = 6.5
